compounds and their reported IC50
# assay target: PRMT5/MEP50 (Homo sapiens (Human))
# Sequence (O14744 other isoform, or with tags, fused parts or gaps): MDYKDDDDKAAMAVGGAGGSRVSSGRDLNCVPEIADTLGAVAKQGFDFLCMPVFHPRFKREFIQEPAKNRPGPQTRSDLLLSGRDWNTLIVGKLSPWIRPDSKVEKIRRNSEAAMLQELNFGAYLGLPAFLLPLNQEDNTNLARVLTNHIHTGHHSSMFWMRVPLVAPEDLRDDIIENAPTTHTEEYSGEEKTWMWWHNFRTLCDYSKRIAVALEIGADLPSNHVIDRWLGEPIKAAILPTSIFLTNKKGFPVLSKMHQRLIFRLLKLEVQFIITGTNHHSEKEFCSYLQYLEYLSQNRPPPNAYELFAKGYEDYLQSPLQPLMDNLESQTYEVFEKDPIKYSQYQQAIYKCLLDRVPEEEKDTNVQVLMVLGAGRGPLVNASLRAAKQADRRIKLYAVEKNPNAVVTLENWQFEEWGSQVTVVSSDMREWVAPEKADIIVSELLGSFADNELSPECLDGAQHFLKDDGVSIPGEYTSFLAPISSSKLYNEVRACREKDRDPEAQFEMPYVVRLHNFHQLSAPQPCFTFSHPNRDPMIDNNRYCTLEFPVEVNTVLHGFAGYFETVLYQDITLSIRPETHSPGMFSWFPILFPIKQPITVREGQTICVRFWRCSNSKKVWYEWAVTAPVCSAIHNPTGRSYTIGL
# Sequence (Q9BQA1 other isoform, or with tags, fused parts or gaps partner): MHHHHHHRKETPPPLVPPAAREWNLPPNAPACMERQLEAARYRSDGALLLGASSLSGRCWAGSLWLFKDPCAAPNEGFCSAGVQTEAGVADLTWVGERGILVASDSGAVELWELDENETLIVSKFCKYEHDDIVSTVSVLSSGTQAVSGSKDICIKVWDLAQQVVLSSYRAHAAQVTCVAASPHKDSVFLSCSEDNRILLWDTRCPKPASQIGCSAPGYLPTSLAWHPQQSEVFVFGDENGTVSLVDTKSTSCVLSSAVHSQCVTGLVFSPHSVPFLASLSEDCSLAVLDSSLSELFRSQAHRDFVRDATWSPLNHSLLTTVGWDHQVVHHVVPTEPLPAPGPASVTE
# protocol summary: PRMT5 Biochemical Assay (PRMT5/MEP50 enzyme assay on peptide substrate, 3H-SAM Flashplate)
# condition parameters: PRMT5 biochemical assay
# Excerpt: S-adenosylmethionine (SAM), S-adenosylhomocysteine (SAH), bicine, KCl, Tween20, dimethylsulfoxide (DMSO), bovine skin gelatin (BSG), and Tris(2-carboxyethyl)phosphine hydrochloride solution (TCEP) were purchased from Sigma-Aldrich at the highest level of purity possible. ^3H-SAM was purchase from American Radiolabeled Chemicals with a specific activity of 80 Ci/mmol. 384-well streptavidin Flashplates were purchased from PerkinElmer. […]

compound: O=C(NC[C@H](O)CN1CCc2ccccc2C1)c1cc(NC2CN(C(=O)C3CC3)C2)ncn1
IC50: < 100 nM
--
compound: Cc1nc(NC2COC2)cc(C(=O)NC[C@H](O)CN2CCc3ccccc3C2)n1
IC50: < 100 nM
--
compound: O=C(NC[C@H](O)CN1CCc2ccccc2C1)c1cnnc(OC2CCNCC2)c1
IC50: < 100 nM
--
compound: O=C(NC[C@H](O)CN1CCc2ccccc2C1)c1cc(NC2COC2)nc(N2CCCCC2)n1
IC50: < 100 nM
--
compound: Cc1ccc2c(c1)CN(C[C@@H](O)CNC(=O)c1cc(NC3COC3)ncn1)CC2
IC50: 101 to 1000 nM
--
compound: CSCCN1CCC(Nc2cc(C(=O)NC[C@H](O)CN3CCc4ccccc4C3)ncn2)CC1
IC50: < 100 nM
--
compound: O=C(NC[C@H](O)CN1CCc2ccccc2C1)c1cc(O)nc(NC2CCC2)c1
IC50: < 100 nM
--
compound: CC(=O)N1CC(Nc2ccnc(C(=O)NC[C@H](O)CN3CCc4ccccc4C3)c2)C1
IC50: < 100 nM
--
compound: O=C(NC[C@H](O)CN1CCc2ccccc2C1)c1cc(N[C@H]2C[C@@H](C(=O)N3CCC3)C2)ncn1
IC50: < 100 nM
--
compound: CC(C)CN1CC(Nc2cc(C(=O)NC[C@H](O)CN3CCc4ccccc4C3)ncn2)C1
IC50: < 100 nM
--
compound: CN(C)C(=O)CN1CC(Nc2cc(C(=O)NC[C@H](O)CN3CCc4ccccc4C3)ncn2)C1
IC50: < 100 nM
--
compound: CC(=O)N1CC(Nc2cc(C(=O)NCC(O)C(C)N3CCc4ccccc4C3)ncn2)C1 (stereo not shown)
IC50: 101 to 1000 nM
--
compound: O=C(NC[C@H](O)CN1CCc2ccccc2C1)c1cn2nc(Cl)ccc2n1
IC50: < 100 nM
--
compound: COCCN(CCOC)[C@H]1C[C@H](Nc2cc(C(=O)NC[C@H](O)CN3CCc4ccccc4C3)ncn2)C1
IC50: < 100 nM
--
compound: CCCN(C)c1nc(NC2COC2)cc(C(=O)NC[C@H](O)CN2CCc3ccccc3C2)n1
IC50: < 100 nM
--
compound: CC(O)(CNC(=O)c1cc(NC2CCN(C(=O)C3CC3)CC2)ncn1)CN1CCc2ccccc2C1 (stereo not shown)
IC50: < 100 nM

----------
# assay target: PRMT5/MEP50 (Homo sapiens (Human))
# protocol summary: PRMT5 Biochemical Assay (PRMT5/MEP50 enzyme assay on peptide substrate, 3H-SAM Flashplate)
# condition parameters: PRMT5 biochemical assay
pIC50: −log10 of the molar value.
compounds and their reported pIC50
observable: pIC50

compound: CC1(C)CC(Nc2cc(C(=O)NC[C@H](O)CN3CCc4ccccc4C3)ncn2)CC(C)(C)N1
observable: pIC50
meas value: > 7.00

compound: CC(=O)N1CC(Nc2cc(C(=O)NC[C@H](O)CN3CCc4ccccc4C3)cnn2)C1
observable: pIC50
meas value: > 7.00

compound: O=C(NC[C@H](O)CN1CCc2ccccc2C1)c1ccnc(NC2CCN(C(=O)C3CC3)CC2)c1
observable: pIC50
meas value: > 7.00

compound: Cc1cnc(NC2CCNC2)cc1C(=O)NC[C@H](O)CN1CCc2ccccc2C1 (stereo partly shown)
observable: pIC50
meas value: > 7.00

compound: CC(=O)N(C)[C@H]1CC[C@H](Nc2cc(C(=O)NC[C@H](O)CN3CCc4ccccc4C3)ncn2)CC1
observable: pIC50
meas value: > 7.00

compound: CC(=O)N1CC[C@H](Nc2cc(C(=O)NC[C@H](O)CN3CCc4ccccc4C3)ncn2)C1
observable: pIC50
meas value: > 7.00

compound: CS(=O)(=O)CCN1CC(Nc2cc(C(=O)NC[C@H](O)CN3CCc4ccccc4C3)ncn2)C1
observable: pIC50
meas value: > 7.00

compound: O=C(NC[C@H](O)CN1CCc2ccccc2C1)c1cc(NC2CNC2)nc(N2CCNCC2)n1
observable: pIC50
meas value: > 7.00

compound: CO[C@H]1CC[C@@H](N(C)c2cc(C(=O)NC[C@H](O)CN3CCc4ccccc4C3)ncn2)CC1
observable: pIC50
meas value: > 7.00

compound: O=C(NC[C@H](O)CN1CCc2ccccc2C1)c1cc(NC2COC2)nc(C2CC2)n1
observable: pIC50
meas value: > 7.00

compound: CC(C)CC(=O)N1CC(Nc2cc(C(=O)NC[C@H](O)CN3CCc4ccccc4C3)ncn2)C1
observable: pIC50
meas value: > 7.00

compound: CC(C)C(=O)N1CCC(Nc2cc(C(=O)NC[C@H](O)CN3CCc4ccccc4C3)ccn2)CC1
observable: pIC50
meas value: > 7.00

compound: CC(NC(=O)c1cc(NC2CCNCC2)ncn1)C(O)CN1CCc2ccccc2C1 (stereo not shown)
observable: pIC50
meas value: 6.00 to 7.00

compound: CN1CCN(c2cc(C(=O)NC[C@H](O)CN3CCc4ccccc4C3)cc(NC3CCC3)n2)CC1
observable: pIC50
meas value: > 7.00

compound: CC(NC(=O)c1cc(NC2COC2)ncn1)[C@@H](O)CN1CCc2ccccc2C1 (stereo partly shown)
observable: pIC50
meas value: > 7.00

compound: CC(=O)N1CCC(Nc2cc(C(=O)NCC(N)CN3CCc4ccccc4C3)ncn2)CC1 (stereo not shown)
observable: pIC50
meas value: 6.00 to 7.00

compound: NC1=NC(C(=O)NC[C@H](O)CN2CCc3ccccc3C2)=CC2=NC(CO)CN12 (stereo partly shown)
observable: pIC50
meas value: 6.00 to 7.00

compound: CC(=O)N1CCC(Nc2cc(C(=O)NC[C@H](O)CN3CCc4c(C)cccc4C3)ncn2)CC1
observable: pIC50
meas value: > 7.00

compound: CCc1nc(NC2COC2)cc(C(=O)NC[C@H](O)CN2CCc3ccccc3C2)n1
observable: pIC50
meas value: > 7.00

compound: CN1CCC(Nc2cc(C(=O)NC[C@H](O)CN3CCc4ccccc4C3)cnn2)C1 (stereo partly shown)
observable: pIC50
meas value: > 7.00

compound: CC(=O)N1CC(Nc2cc(C(=O)NC[C@H](O)CN3CCc4ccccc4C3)nc(C(C)C)n2)C1
observable: pIC50
meas value: > 7.00

compound: O=C(NC[C@H](O)CN1CCc2ccccc2C1)c1cc(NC2COC2)nc(N2CCN(C(=O)C3CC3)CC2)n1
observable: pIC50
meas value: > 7.00

compound: CCC(=O)N1CCC(Nc2cc(C(=O)NC[C@H](O)CN3CCc4ccccc4C3)ccn2)CC1
observable: pIC50
meas value: > 7.00

compound: CN(C)C(=O)[C@H]1CC[C@H](Nc2cc(C(=O)NC[C@H](O)CN3CCc4ccccc4C3)ncn2)CC1
observable: pIC50
meas value: > 7.00

compound: CC(=O)N1CCC(Nc2cc(C(=O)NC[C@H](O)CN3Cc4ccccc4CC3C)ccn2)CC1 (stereo partly shown)
observable: pIC50
meas value: 5.00 to 6.00

compound: COC(CNC(=O)c1cc(NC2CCN(C(C)=O)CC2)ncn1)CN1CCc2ccccc2C1 (stereo not shown)
observable: pIC50
meas value: 6.00 to 7.00

compound: Cc1ccc2c(c1)CCN(C[C@@H](O)CNC(=O)c1cc(NC3COC3)ncn1)C2
observable: pIC50
meas value: 6.00 to 7.00

compound: CC(=O)N1CCC(Nc2cc(C(=O)NC[C@H](O)CN3CCc4cc(C)ccc4C3)ncn2)CC1
observable: pIC50
meas value: > 7.00

compound: CCN(C)[C@H]1CC[C@@H](Nc2cc(C(=O)NC[C@H](O)CN3CCc4ccccc4C3)ncn2)CC1
observable: pIC50
meas value: > 7.00

compound: NC(=O)[C@H]1CC[C@H](Nc2cc(C(=O)NC[C@H](O)CN3CCc4ccccc4C3)ncn2)CC1
observable: pIC50
meas value: > 7.00

compound: CC(C)C(=O)N1CC(Nc2cc(C(=O)NC[C@H](O)CN3CCc4ccccc4C3)ccn2)C1
observable: pIC50
meas value: > 7.00

----------
# assay target: PRMT5/MEP50 (Homo sapiens (Human))
# protocol summary: PRMT5 Biochemical Assay (PRMT5/MEP50 enzyme assay on peptide substrate, 3H-SAM Flashplate)
# condition parameters: PRMT5 biochemical assay
# Text: S-adenosylmethionine (SAM), S-adenosylhomocysteine (SAH), bicine, KCl, Tween20, dimethylsulfoxide (DMSO), bovine skin gelatin (BSG), and Tris(2-carboxyethyl)phosphine hydrochloride solution (TCEP) were purchased from Sigma-Aldrich at the highest level of purity possible. ^3H-SAM was purchase from American Radiolabeled Chemicals with a specific activity of 80 Ci/mmol. 384-well streptavidin Flashplates were purchased from PerkinElmer. […]
pIC50: −log10 of the molar value.
compounds and their reported pIC50

compound: CC(=O)N1CC(Nc2cc(C(=O)NC[C@H](O)CN3CCc4ccccc4C3)nc(C(C)(C)C)n2)C1 [Compound 546]
pIC50: > 7.00

compound: O=C(NC[C@H](O)CN1CCc2ccccc2C1)c1cnnc(NC2COC2)c1 [Compound 545]
pIC50: > 7.00

compound: CC(C)C(=O)N1CC(Nc2cc(C(=O)NC[C@H](O)CN3CCc4ccccc4C3)ncn2)C1 [Compound 416]
pIC50: > 7.00

compound: COCCN(C)c1cc(NC2CCN(C(C)=O)CC2)cc(C(=O)NC[C@H](O)CN2CCc3ccccc3C2)n1 [Compound 672]
pIC50: > 7.00

compound: CC(=O)N1CC(Oc2cc(C(=O)NC[C@H](O)CN3CCc4ccccc4C3)ncn2)C1 [Compound 475]
pIC50: > 7.00

compound: C[C@H](N1CC(Nc2cc(C(=O)NC[C@H](O)CN3CCc4ccccc4C3)ncn2)C1)C(F)(F)F [Compound 445]
pIC50: > 7.00

compound: CC(C(O)CNC(=O)c1cc(NC2COC2)ncn1)N1CCc2ccccc2C1 (stereo not shown) [Compound 607]
pIC50: 5.00 to 6.00

compound: CN[C@H]1CC[C@H](Nc2cc(C(=O)NC[C@H](O)CN3CCc4ccccc4C3)ncn2)CC1 [Compound 661]
pIC50: > 7.00

compound: CC(=O)N1CCC(Nc2cc(C(=O)NC[C@H](O)CN3CCc4ccccc4C3)cc(OCCN(C)C)n2)CC1 [Compound 628]
pIC50: > 7.00

compound: CC(=O)N1CC(Nc2cc(C(=O)NC[C@H](O)CN3CCc4ccccc4C3)nc(N3CCN(C)CC3)n2)C1 [Compound 442]
pIC50: > 7.00

compound: O=C(NC[C@H](O)CN1CCc2ccccc2C1)c1cc(NC2COC2)nc(N2CCCC2)n1 [Compound 451]
pIC50: > 7.00

compound: O=C(NC[C@H](O)CN1CCc2ccccc2C1)c1cccc(NC2COC2)n1 [Compound 436]
pIC50: > 7.00

compound: O=C(NCCCN1CCc2ccccc2C1)c1cc(NC2COC2)ncn1 [Compound 651]
pIC50: 6.00 to 7.00

compound: O=C(NC[C@H](O)CN1CCc2ccccc2C1)c1ncnc(NC2COC2)c1F [Compound 422]
pIC50: > 7.00

compound: CC(=O)N1CC(Nc2cc(C(=O)NC[C@H](O)CN3CCc4ccc(C)cc4C3)ncn2)C1 [Compound 667]
pIC50: 6.00 to 7.00

compound: CC(CNC(=O)c1cc(NC2COC2)ncn1)CN1CCc2ccccc2C1 (stereo not shown) [Compound 657]
pIC50: > 7.00
